Molecular target: T1, IL-1beta (UniProt P01584 117-269)
T1 construct: also called IL-1β
Test: Biacore

[
  {
    "binder": "XPA23 Fab, heavy chain G56E (Fab, V domains shown) VH: EVQLLESGGGLVQPGGSLRLSCAASGFTFSKYFMFWVRQAPGKGLEWVSVISPSGEMTRYADSVKGRFTISRDNSKNTLYLQMNSLRAEDTAVYYCARVGYGGNSDYWGQGTLVTVSS VL: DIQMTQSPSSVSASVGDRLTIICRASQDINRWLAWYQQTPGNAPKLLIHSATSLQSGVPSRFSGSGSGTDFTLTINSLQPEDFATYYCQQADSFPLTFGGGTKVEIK",
    "fold difference in affinity vs parental [fold]": 1.21
  },
  {
    "binder": "XPA23 Fab, heavy chain Y101R (Fab, V domains shown) VH: EVQLLESGGGLVQPGGSLRLSCAASGFTFSKYFMFWVRQAPGKGLEWVSVISPSGGMTRYADSVKGRFTISRDNSKNTLYLQMNSLRAEDTAVYYCARVGRGGNSDYWGQGTLVTVSS VL: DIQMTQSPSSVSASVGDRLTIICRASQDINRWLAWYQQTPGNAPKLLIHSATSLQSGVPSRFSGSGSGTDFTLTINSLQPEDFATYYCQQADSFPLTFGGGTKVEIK",
    "fold difference in affinity vs parental [fold]": 0.85
  },
  {
    "binder": "XPA23 Fab, heavy chain G55S (Fab, V domains shown) VH: EVQLLESGGGLVQPGGSLRLSCAASGFTFSKYFMFWVRQAPGKGLEWVSVISPSSGMTRYADSVKGRFTISRDNSKNTLYLQMNSLRAEDTAVYYCARVGYGGNSDYWGQGTLVTVSS VL: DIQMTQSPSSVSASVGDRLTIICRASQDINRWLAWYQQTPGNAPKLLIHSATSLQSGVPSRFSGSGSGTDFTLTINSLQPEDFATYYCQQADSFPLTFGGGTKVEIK",
    "fold difference in affinity vs parental [fold]": 1.02
  }
]
